These entries and their values trace back to patent US20160145247A1.

biological target: factor D (Homo sapiens, UniProt P00746); construct: made in house; host or cells: E. coli; assay: factor D inhibition assay of Biological Example 2; type: biochemical
Sequence (P00746 26-253): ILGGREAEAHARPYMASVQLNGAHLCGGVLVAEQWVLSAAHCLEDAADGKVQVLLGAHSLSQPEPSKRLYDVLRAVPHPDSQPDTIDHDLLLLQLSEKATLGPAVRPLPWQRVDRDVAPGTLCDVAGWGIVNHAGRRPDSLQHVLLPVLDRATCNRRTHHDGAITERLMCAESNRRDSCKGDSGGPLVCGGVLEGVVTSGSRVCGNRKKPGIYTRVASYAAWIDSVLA
MEASUREMENT_TYPE: log10(IC50) (log10 of the value in nM)
Answers are given as log10 of IC50 in nM.

Please give log10(IC50), item by item, for the list that follows.
1. CCc1sc(-c2cc(F)cc(CN)c2)nc1C(=O)Nc1ccccc1CC(=O)O [Example 36-C]
2. CC(C)C(=O)Nc1cc(C(=O)Nc2ccccc2CC(=O)O)cc(-c2cc(F)cc(CN)c2)c1 [Example 97]
3. CCOC(=O)Cc1ccccc1OCc1cccc(-c2cccc([C@H](N)CO)c2)c1 [Example 268-C]

Result ::
[1.56, 1.65, 4.74]
